test system: CCRF-CEM; assay: NCI tumour cell line growth inhibition, 48 h
Calls of active or inactive are those of the source. Cut-off read from the data, not from the text of the source: active = GI50 up to about 1.1 µM and inactive = higher.
Classes used: Yes (active), No (inactive)

INSERT INTO results (compound, qualitative_label) VALUES
  ('Cn1nc2ccccc2cc1=O', 'No'),
  ('O=C1C=C2CO[C@H]3OC[C@H](O)[C@@H]1[C@@H]23', 'No'),
  ('COc1cc(/C=C\c2ccccc2)cc(OC)c1OC', 'No'),
  ('CC(C)/C(Cl)=N\OC(=O)Nc1ccc(F)cc1', 'Yes'),
  ('CCOC(=O)c1cc2ncccc2c2ccccc12', 'No'),
  ('CC[C@@]1(O)C(=O)OCc2c1cc1n(c2=O)Cc2cc3cc(OC)ccc3nc2-1', 'Yes'),
  ('O=C(O)c1nnsc1-c1ccc(-c2snnc2C(=O)O)cc1', 'No'),
  ('CC1(C2CCC3(C)C(C2)C3Sc2ccccc2)OCCO1 (configuration not stated)', 'No'),
  ('N=C(N)Nc1ccc(CC(N)C(=O)O)cc1 (configuration not stated)', 'No'),
  ('COc1ccc(/C=C2\Cc3ccccc3C2=O)cc1OC', 'No'),
  ('Cc1ccc(S(=O)(=O)N/N=C2\CC3C4CCC3C2C4)cc1 (configuration not stated)', 'No'),
  ('CC1OC(n2cc(F)c(=O)[nH]c2=O)C=CC1=O (configuration not stated)', 'No');

----------
# GI50 per entry
tested on: HT-29; test: NCI tumour cell line growth inhibition, 48 h
Active and inactive are the calls of the source. Cut-off read from the data, not from the text of the source: active = GI50 up to about 1.1 µM and inactive = higher.
property: GI50

INSERT INTO results (compound, measured) VALUES
  ('Cc1ccc(C2=Nc3ccccc3NC(=O)C2)cc1', '> 100 µM (inactive)'),
  ('O=c1[nH]nc2c3n[nH]c(=O)n3c3ccccc3n12', '> 100 µM (inactive)'),
  ('CC1OC(n2cc(F)c(=O)[nH]c2=O)CCC1=O (stereo not drawn)', '91 µM (inactive)'),
  ('CCN(CC)c1ccc2nc3ccc(/N=N/c4c(O)ccc5ccccc45)cc3[n+](-c3ccccc3)c2c1', '> 100 µM (inactive)'),
  ('C/C(=N\O)c1ccc(Nc2c3ccccc3nc3occc23)cc1', '0.199 µM (active)'),
  ('CCOC(=O)c1[nH]c(COC(C)=O)c2c1CCCCCCCCCC2', '> 100 µM (inactive)'),
  ('Cn1c(=O)c(C(=O)Nc2nc(C34CC5CC(CC(C5)C3)C4)cs2)c(O)c2ccccc21', '> 100 µM (inactive)'),
  ('CC(C)C(O)(C(C)C)C(C)C', '> 100 µM (inactive)'),
  ('Cc1cn(C2CC(N=[N+]=[N-])C(CO)O2)c(=O)n(CCCCO)c1=O (stereo not drawn)', '> 100 µM (inactive)'),
  ('O=S(=O)(c1ccccc1)c1cccc2c1NCCC2', '37.8 µM (inactive)'),
  ('c1coc(CNc2[nH]cnc3nncc2-3)c1', '> 100 µM (inactive)'),
  ('CCCCC(Sc1cc(Cl)c(C)cc1S(=O)(=O)Nc1nc(N)n[nH]1)C(=O)OC (stereo not drawn)', '> 10 µM (inactive)'),
  ('CN(C)C(=Nc1nc(N(C)C)s[s+]1)N(C)C', '> 100 µM (inactive)'),
  ('Cc1ccc(S(=O)(=O)OC2C3OC(C)(C)OC3OC2C(c2cc(O)c3c(c2O)C(=O)c2ccccc2C3=O)c2cc(O)c3c(c2O)C(=O)c2ccccc2C3=O)cc1 (stereo not drawn)', '> 10 µM (inactive)'),
  ('C[n+]1c(-c2ccccc2)cc2/c(=C\c3ccc([N+](=O)[O-])cc3)c3ccccc3n21', '0.957 µM (active)'),
  ('CC(C)/C(Cl)=N\OC(=O)Nc1ccc(F)cc1', '2.04 µM (inactive)'),
  ('N#CC1=C(N)OC2=C(CCCc3ccccc32)C1c1ccc([N+](=O)[O-])cc1 (stereo not drawn)', '12.2 µM (inactive)'),
  ('CN(CCCn1ccnc1[N+](=O)[O-])CCCn1ccnc1[N+](=O)[O-]', '> 100 µM (inactive)'),
  ('O=C1NCCS(=O)(=O)N[C@@H](CC2=CC=CCC2)C(=O)N2CCCC12 (stereo partly drawn)', '> 100 µM (inactive)'),
  ('C=CC/C(C(=O)OC)=C(/C(=O)OC)N(CCC)CCC', '> 100 µM (inactive)'),
  ('NC(=O)c1ncn2c1CNC(=O)C2', '> 100 µM (inactive)'),
  ('COc1ccc(/C=C2\Cc3ccccc3C2=O)cc1OC', '> 100 µM (inactive)'),
  ('O=C1N2CCC[C@H]2CS1(=O)=O', '28.5 µM (inactive)');

----------
test system: UACC-257; test: NCI tumour cell line growth inhibition, 48 h
Calls of active or inactive are those of the source. Rule as the data show it: active = GI50 up to about 1.1 µM and inactive = higher.
Classes used: yes (1) (active), no (0) (inactive)

INSERT INTO results (compound, qualitative_label) VALUES
  ('OCC[N+]12CCCN1CCC2', 'no (0)'),
  ('CN(C)c1ccc(/C=c2\sc3nnc(-c4cccnc4)n3c2=O)cc1', 'no (0)'),
  ('C#CCN(N=O)C(=O)NCCCC(NC(C)=O)C(=O)NCc1ccccc1 (stereo not drawn)', 'no (0)'),
  ('CC[C@@]1(O)C(=O)OCc2c1cc1n(c2=O)Cc2cc3cc(OC)ccc3nc2-1', 'yes (1)'),
  ('CN1/C(=C/C(=O)c2ccc(Cl)cc2)Nc2ccccc21', 'no (0)'),
  ('Oc1ccccc1/C=N/c1ccc(Oc2ccc(Cl)cc2)c(Cl)c1', 'no (0)'),
  ('N#CC(NNC(=O)Cc1ccccc1)c1c(O)ccc2ccccc12 (stereo not drawn)', 'no (0)'),
  ('Nc1nc(Cl)cc(NC23CC4CC(CC(C4)C2)C3)n1', 'no (0)'),
  ('O=C(Cc1ccccc1)NN1C(=O)/C(=C\c2cccc([N+](=O)[O-])c2)S/C1=N\c1ccccc1', 'no (0)'),
  ('C=CC/C(C(=O)OC)=C(/C(=O)OC)N(CCC)CCC', 'no (0)'),
  ('CC1(C)COC2(OC1)C1=NS(=O)(=O)CC13CCC2C3(C)C (stereo not drawn)', 'no (0)'),
  ('COc1nc(N)c(/N=C/C(OC(C)=O)C(OC(C)=O)C(COC(C)=O)OC(C)=O)c(=O)n1C (stereo not drawn)', 'no (0)'),
  ('N=C(N)N/N=C/c1c(-c2ccccc2[N+](=O)[O-])nc2sccn12', 'no (0)'),
  ('S=C(N/N=C/c1ccccn1)N1CCCCC1', 'yes (1)'),
  ('CC(C)(C)OP(=O)(OC(C)(C)C)C(O)c1ccc(/C=C(\C#N)C(N)=O)cc1 (stereo not drawn)', 'no (0)'),
  ('C/C(=N\O)c1ccc(Nc2c3ccccc3nc3occc23)cc1', 'no (0)'),
  ('N#C/C(=C\c1cccc(Br)c1)c1nc2ccccc2c(=O)[nH]1', 'no (0)'),
  ('COc1cc(/C=C\c2ccccc2)cc(OC)c1OC', 'no (0)'),
  ('O=[N+]([O-])C[C@@]12O[C@]3(O)C4C5CC(C6C5C3C61)C42 (stereo partly drawn)', 'no (0)'),
  ('O=C1CC(c2cccc(Cl)c2)Oc2ccccc21 (stereo not drawn)', 'no (0)'),
  ('CC1(C)C(=O)OC(n2cc(F)c(=O)[nH]c2=O)C1=O (stereo not drawn)', 'no (0)'),
  ('COc1ccc(NC(=S)Nc2c(C)n(C)n(-c3ccccc3)c2=O)cc1', 'no (0)'),
  ('COC(=O)CCC(=O)NC1c2cccc3cccc(c23)Cn2c(=O)n(C)c(=O)n21 (stereo not drawn)', 'no (0)');

----------
system: TK-10; assay: NCI tumour cell line growth inhibition, 48 h
Calls of active or inactive are those of the source. No stated cut-off is given here; in the data, active = GI50 up to about 1.1 µM and inactive = higher.
Classes used: YES = active, NO = inactive

INSERT INTO assay_data (molecule, qualitative_label) VALUES
  ('O=C1N2CCC[C@H]2CS1(=O)=O', 'NO'),
  ('C/C(=N\Nc1nc2ccccc2n1C)c1cnccn1', 'YES'),
  ('C#CCN(N=O)C(=O)NCCCC(NC(C)=O)C(=O)NCc1ccccc1 (configuration not stated)', 'NO'),
  ('OCC1OC(N2CCN(C3OC(CO)C(O)C(O)C3O)CC2)C(O)C(O)C1O (configuration not stated)', 'NO'),
  ('CC(=O)OCC12CCC3C4(C)CCCC(C)(C)C4CCC3(C)C1CC(C1=CC(=O)OC1O)O2 (configuration not stated)', 'NO'),
  ('CC1(C)OC(=O)C(=Cc2ccc([N+](=O)[O-])s2)C(=O)O1', 'NO'),
  ('CC1(C)C(=O)OC(n2cc(F)c(=O)[nH]c2=O)C1=O (configuration not stated)', 'NO'),
  ('CC(C)/C(Cl)=N\OC(=O)Nc1ccc(F)cc1', 'NO'),
  ('COc1cccc(OC)c1/C=N\N1C(=O)c2ccccc2C1=O', 'NO'),
  ('COC(=O)c1ccc(C(=O)NC(Cc2ccc(Oc3cc(CC(NC(=O)c4ccccc4C(=O)OC)C(=O)OC)ccc3OC)cc2)C(=O)OC)cc1 (configuration not stated)', 'NO'),
  ('COc1ccc(N2C(=O)/C(=C\c3cc(OC)c(OC)c(OC)c3)SC2c2ccccc2)cc1 (configuration not stated)', 'NO'),
  ('C1=CCC[C@@H]2CN3CCCC/C=C\CCCC[C@H]4C[C@H](CN(CCCCCCCC1)C4)[C@H]2CC3', 'NO'),
  ('Cc1ccc(-c2c(C#N)c(N)[nH]c(=S)c2C#N)cc1', 'NO'),
  ('CC(NC1=CC(=O)c2ncccc2C1=O)C(O)c1ccccc1 (configuration not stated)', 'NO'),
  ('Cc1cc2c(=O)c3ccccc3[nH]c2c(C(N)=O)c1C', 'NO'),
  ('COc1ccc(/C=C2\CCC(CN(C)C)C2=O)cc1OC (configuration not stated)', 'NO'),
  ('C[n+]1c(-c2ccccc2)cc2/c(=C\c3ccc([N+](=O)[O-])cc3)c3ccccc3n21', 'NO');
